test: Drug uptake in NCr-M nude mouse tumor xenografted with human AN3CA cells at 200 mg/kg, po after 1 hr; type: ADME, organism-based, Neoplasm; conditions: read-out: Drug uptake
REPORTED PROPERTY: concentration at 1 h (µM)
Expressed in µM, but write only the number.

Challenge: Tell me the measured concentration at 1 h of `Cl.Nc1ncccc1-c1nc2ccc(-c3ccccc3)nc2n1-c1ccc(C2(N)CCC2)cc1` , please.
Response given: 35.8

---

Reported half-life at 1 µM values for the following molecules.
test: in vitro; settings: male, Beagle, dog, liver microsomes

mol=CC(=O)Nc1cccc(-c2ccc3nc(-c4cccnc4N)n(-c4ccc(C5(N)CCC5)cc4)c3n2)c1.Cl reported_property="half-life at 1 µM" data_value="> 60 min"
mol=Cl.Nc1ncccc1-c1nc2ccc(-c3ccccc3)nc2n1-c1ccc(C2(N)CCC2)cc1 reported_property="half-life at 1 µM" data_value="31 min"
mol=Cl.Nc1cccc(-c2ccc3nc(-c4cccnc4N)n(-c4ccc(C5(N)CCC5)cc4)c3n2)c1 reported_property="half-life at 1 µM" data_value="> 60 min"
mol=Cl.Nc1ncccc1-c1nc2ccc(-c3cccnc3)nc2n1-c1ccc(C2(N)CCC2)cc1 reported_property="half-life at 1 µM" data_value="> 30 min"

Challenge: Tell me the measured half-life at 1 µM of `CC(=O)Nc1cccc(-c2ccc3nc(-c4cccnc4N)n(-c4ccc(CN)cc4)c3n2)c1.Cl` , please.
Response given: > 60 min

---

assay: Drug uptake in NCr-M nude mouse tumor xenografted with human AN3CA cells at 100 mg/kg, po after 1 hr; type: ADME, organism-based, Neoplasm; details: read-out: Drug uptake
REPORTED PROPERTY: concentration at 1 h (µM)
Expressed in µM, but write only the number.

Challenge: Tell me the measured concentration at 1 h of `Cl.Nc1ncccc1-c1nc2ccc(-c3ccccc3)nc2n1-c1ccc(C2(N)CCC2)cc1` , please.
Response given: 21

---

test: Drug uptake in NCr-M nude mouse tumor xenografted with human AN3CA cells at 100 mg/kg, po after 8 hr; type: ADME, organism-based, Neoplasm; conditions: read-out: Drug uptake
REPORTED PROPERTY: concentration at 8 h (µM)
Expressed in µM, but write only the number.

Challenge: Tell me the measured concentration at 8 h of `Cl.Nc1ncccc1-c1nc2ccc(-c3ccccc3)nc2n1-c1ccc(C2(N)CCC2)cc1` , please.
Response given: 9.6

---

assay: Oral bioavailability in mouse at 100 mg/kg; format: ADME, organism-based; conditions: in vivo
REPORTED PROPERTY: bioavailability (%)
Expressed in %, but write only the number.

Challenge: Tell me the measured bioavailability of `Cl.Nc1ncccc1-c1nc2ccc(-c3ccccc3)nc2n1-c1ccc(C2(N)CCC2)cc1` , please.
Response given: 23

---

experiment: Tmax in rat at 5 mg/kg administered as single dose; assay type: ADME, organism-based; settings: in vivo
REPORTED PROPERTY: Tmax (h)
Expressed in h, but write only the number.

Challenge: Tell me the measured Tmax of `Cl.Nc1ncccc1-c1nc2ccc(-c3ccccc3)nc2n1-c1ccc(C2(N)CCC2)cc1` , please.
Response given: 8

---

experiment: AUC (infinity) in rat at 5 mg/kg administered as single dose; assay type: ADME, organism-based; parameters: dose 5 mg/kg, time infinity; settings: in vivo
REPORTED PROPERTY: AUC(0-inf) (ng·h/mL)
Expressed in ng·h/mL, but write only the number.

Challenge: Tell me the measured AUC(0-inf) of `Cl.Nc1ncccc1-c1nc2ccc(-c3ccccc3)nc2n1-c1ccc(C2(N)CCC2)cc1` , please.
Response given: 5500

All figures here come from ChEMBL document CHEMBL4477217.
